Data origin, for the record: patent US20230322745A1

assay.summary: Pharmacokinetic evaluation in SD rats
Type: in vivo
reported.conditions: male, rat, plasma, 2 mg/kg, intravenous injection 2 mpk, 10% aqueous HPβCD, read-out: Concentration integration AUC for administration by intravenous injection
Structures can show the parent of a compound that is named as a salt.
endpoint.name: AUC (µM·h)
Report only the number, with the unit µM·h understood.

CN(CCCn1nnc2cc(CNC[C@H](O)c3ccc(O)c4[nH]c(=O)ccc34)ccc21)[C@H]1CC[C@H](OC(=O)C(O)(c2cccs2)c2cccs2)CC1 [Hydrofluoride salt of AZD8871, reference compound]	1.27

// next item, AUC requested
I have this compound here, CN(CCCn1nnc2cc(CNC[C@H](O)c3ccc(O)c4[nH]c(=O)ccc34)c3c(c21)CCC3)[C@H]1CC[C@H](OC(=O)C(O)(c2cccs2)c2cccs2)CC1 [Trifluoroacetate salt of compound 1] , and I need its recorded AUC.
0.681
